Field: GI50. Provide a value for each of the compounds that follow.
Tested on: SF-539
MEASUREMENT_PROTOCOL: NCI tumour cell line growth inhibition, 48 h
Active and inactive are the calls of the source. Rule as the data show it: active = GI50 up to about 1.1 µM and inactive = higher.

// GI50 lookup, compound = Nc1nnc(CCC(=O)Nc2cc(Cl)ccc2Cl)n1N , result: > 100 µM (inactive)

// GI50 lookup, compound = CN(CCC(=O)O)S(=O)(=O)c1ccccc1 , result: > 100 µM (inactive)

// GI50 lookup, compound = N#C/C(=C\c1c(Cl)cccc1Cl)c1ccccc1 , result: 2.72 µM (inactive)

// GI50 lookup, compound = Nc1ccnc2c1ncn2[C@H]1C[C@H](O)[C@@H](CO)O1 , result: > 100 µM (inactive)

// GI50 lookup, compound = CN(C)c1ccc(C2CC(C)(O)Oc3cc4c(cc32)OCO4)cc1 (configuration not stated) , result: 34.1 µM (inactive)

// GI50 lookup, compound = COC[C@@H](Cc1ccc(OC)c(OC)c1)[C@@H](COC)Cc1ccc(OC)c(OC)c1 , result: > 100 µM (inactive)

// GI50 lookup, compound = C[N+]1(CCC(=O)c2ccccc2)CCC2CCC(C2)C1 (configuration not stated) , result: > 100 µM (inactive)
